Test: xn = mol fraction of the nth substance listed, in the solute-free solvent
Details: 303.15 K; x2 = 0.1139
Is solubility (g/100 g solution) at least 0.8? Then class 1. If not, class 0.

Before answering, review these 3 worked examples.
compound	categoryLabel
Nc1cccc2ccncc12 + CC(C)O + O	class 0
Nc1cccc2ccncc12 + CCCO + O	class 0
Cc1ccc2cc(Br)ccc2n1 + CC(C)O + O	class 0

Does the compound CN1CCC(N(Cc2cccs2)c2ccccc2)CC1 + CCCO + O have recorded solubility (g/100 g solution) that is 0.8 or more? class 1

----------
Assay: xn = mol fraction of the nth substance listed, in the solute-free solvent
Settings: 278.15 K; x2 = 0.03225
solubility (g/100 g solution): recorded values
Kindly provide the number alone.

Solved cases (4 shown):
compound	solubility (g/100 g solution)
Cc1ccc2cc(Br)ccc2n1 + CC(C)O + O	0.0479
CN1CCC(N(Cc2cccs2)c2ccccc2)CC1 + CCCO + O	0.166
CN1CCC(N(Cc2cccs2)c2ccccc2)CC1 + CC(C)O + O	0.141
Nc1cccc2ccncc12 + CCCO + O	0.0813

Note: attention shifts to another entry.
Query (compound): Nc1cccc2ccncc12 + CC(C)O + O ; field requested: solubility (g/100 g solution) 0.0706
